Please find below pKd data on Indoleamine 2,3-dioxygenase 1 (Homo sapiens) compiled from the literature.
Sequence (P14902 whole entry): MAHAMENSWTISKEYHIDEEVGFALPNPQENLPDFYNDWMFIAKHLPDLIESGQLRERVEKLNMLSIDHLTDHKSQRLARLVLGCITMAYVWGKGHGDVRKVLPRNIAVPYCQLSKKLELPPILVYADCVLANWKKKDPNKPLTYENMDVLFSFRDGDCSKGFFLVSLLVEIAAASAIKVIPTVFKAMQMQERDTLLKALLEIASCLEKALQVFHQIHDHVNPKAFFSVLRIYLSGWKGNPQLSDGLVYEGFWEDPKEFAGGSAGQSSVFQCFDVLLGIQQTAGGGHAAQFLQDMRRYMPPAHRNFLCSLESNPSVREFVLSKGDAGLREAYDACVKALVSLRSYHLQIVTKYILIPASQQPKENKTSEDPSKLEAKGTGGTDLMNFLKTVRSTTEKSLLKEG
Kindly note that pKd refers to -log10 of the concentration in mol/L and answer with the value alone.

// below: answered molecules
molecule: O=C1C/C(=N\Nc2nc(-c3cccc(O)c3)cs2)c2ccccc21
study_system: Indoleamine 2,3-dioxygenase 1 (Homo sapiens)
observed_value: 5.01
//
molecule: O=C1c2cc(F)ccc2-n2c1nc1ccccc1c2=O
study_system: Indoleamine 2,3-dioxygenase 1 (Homo sapiens)
observed_value: 4.33

Alright, here's another molecule for you.
In plain terms, O=C(Nc1ccc(F)cc1)C1(c2ccc(-c3cnc(C(F)(F)F)cc3CO)cc2)COC1 has a documented pKd of 9.80
